Reported values of AUC(0-t) for individual entries
Assay: Pharmacokinetic (PK) analysis in rats
Type: in vivo, Sprague Dawley (SD) rats
Conditions: Sprague-Dawley, rat, plasma, po; SD rats, single intragastric administration, 5 mg/kg; read-out: Area Under Curve AUC0-t

MOLECULE	AUC(0-t), ng·h/mL
CO[C@H]1CCC1Oc1cc(NC(=O)N2CCCc3cc(CN4CCOCC4=O)c(C=O)nc32)ncc1C#N (stereo partly shown)	4020
COCCNc1cc(NC(=O)N2CCCc3cc(CN4CCCCOC4=O)c(C=O)nc32)ncc1C#N	9110
CO[C@@H]1CCC1Oc1cc(NC(=O)N2CCCc3cc(CN4CCOCC4=O)c(C=O)nc32)ncc1C#N (stereo partly shown)	2110
COCC1(Nc2cc(NC(=O)N3CCCc4cc(CN5CCOCC5=O)c(C=O)nc43)ncc2C#N)CC1	3890

###

Assay: Pharmacokinetic (PK) analysis in rats
Format: in vivo, Sprague Dawley (SD) rats
Conditions: Sprague-Dawley, rat, plasma, po; SD rats, single intragastric administration, 5 mg/kg; read-out: Area Under Curve AUC0-t
Reported values of AUC(0-t) for individual entries

MOLECULE	U	AUC(0-t)
CO[C@@H]1CCN(c2cc(NC(=O)N3CCCc4cc(CN5CCCCOC5=O)c(C=O)nc43)ncc2C#N)C1 [Example 31]	ng·h/mL	1920
N#Cc1cnc(NC(=O)N2CCCc3cc(CN4CCOCC4=O)c(C=O)nc32)cc1S[C@@H]1CCOC1 [Example 56]	ng·h/mL	6650
CO[C@H]1CCN(c2cc(NC(=O)N3CCCc4cc(CN5CCOC5=O)c(C=O)nc43)ncc2C#N)C1 [Example 40]	ng·h/mL	1080
COc1ccccc1Nc1cc(NC(=O)N2CCCc3cc(CN4CCOCC4=O)c(C=O)nc32)ncc1C#N [Example 8]	ng·h/mL	4790
CO[C@@H]1CCCC1Nc1cc(NC(=O)N2CCCc3cc(CN4CCOCC4=O)c(C=O)nc32)ncc1C#N (stereo partly drawn) [Example 1]	ng·h/mL	1010
CO[C@@H]1CCN(c2cc(NC(=O)N3CCCc4cc(CN5CCOC5=O)c(C=O)nc43)ncc2C#N)C1 [Example 41]	ng·h/mL	2880
CO[C@H]1COCC1Nc1cc(NC(=O)N2CCCc3cc(CN4CCOCC4=O)c(C=O)nc32)ncc1C#N (stereo partly drawn) [Example 66]	ng·h/mL	2480
CO[C@@H]1CCC[C@H]1Nc1cc(NC(=O)N2CCCc3cc(CN4CCOCC4=O)c(C=O)nc32)ncc1C#N [Example 60]	ng·h/mL	3770
N#Cc1cnc(NC(=O)N2CCCc3cc(CN4CCOCC4=O)c(C=O)nc32)cc1S[C@H]1CCOC1 [Example 55]	ng·h/mL	1940
COC[C@@H](C)Nc1cc(NC(=O)N2CCCc3cc(CN4CCCCOC4=O)c(C=O)nc32)ncc1C#N [Example 29]	ng·h/mL	9460
CONc1cc(NC(=O)N2CCCc3cc(CN4CCOCC4=O)c(C=O)nc32)ncc1C#N [Example 54]	ng·h/mL	5530
CO[C@H]1COCC1Oc1cc(NC(=O)N2CCCc3cc(CN4CCOCC4=O)c(C=O)nc32)ncc1C#N (stereo partly drawn) [Example 67]	ng·h/mL	3990

###

Assay: Pharmacokinetic (PK) analysis in rats
Format: in vivo, Sprague Dawley (SD) rats
Conditions: Sprague-Dawley, rat, plasma, po; SD rats, single intragastric administration, 5 mg/kg; read-out: Mean Residence Time MRT
Strictly below 3 h in MRT: satisfied. Otherwise: not satisfied.

COMPOUND	CLASS_LABEL
CO[C@@H]1CCN(c2cc(NC(=O)N3CCCc4cc(CN5CCCCOC5=O)c(C=O)nc43)ncc2C#N)C1	not satisfied
CO[C@@H]1CCN(c2cc(NC(=O)N3CCCc4cc(CN5C(=O)OC[C@@H]5C)c(C=O)nc43)ncc2C#N)C1	not satisfied
CO[C@H]1COCC1Nc1cc(NC(=O)N2CCCc3cc(CN4CCOCC4=O)c(C=O)nc32)ncc1C#N (stereo partly shown)	not satisfied
COCCNc1cc(NC(=O)N2CCCc3cc(CN4CCCOCC4=O)c(C=O)nc32)ncc1C#N	satisfied
